Molecular target: human β3 (Homo sapiens)
Construct: And then full length of human β3 gene was cloned using this fragment as a probe; expressed in transfected cells; host or cells: CHO cells (Chinese hamster ovary), pcDNA3 vector
Assay: Human β3-agonist activity (cAMP in CHO cells transfected with human β3 gene)
Type: cell-based
Settings: CHO; read-out: Intrinsic activity (%)
Counter-ions that a name gives are not always drawn.
observationType: Emax (%)
Your answer should be a plain number; it is taken to be in %.

Solved entries:
compound: CN(C)S(=O)(=O)Nc1cc([C@H](O)CNCCOc2ccc3c(c2)oc2ccccc23)ccc1O [Example 76, Hydrochloride]
unitInfo: %
Emax: 131

compound: OCc1cc(C(O)CNCCOc2ccc3c(c2)[nH]c2ccccc23)ccc1O (racemic) [Example 67, Hydrochloride]
unitInfo: %
Emax: 109

compound: CS(=O)(=O)Nc1cc([C@@H](O)CNCCOc2ccc3c(c2)[nH]c2ccccc23)ccc1Cl [Example 79, Hydrochloride]
unitInfo: %
Emax: 107

Kindly consider the entry below.
Exercise: Any idea what its Emax is? The compound is CN(C)S(=O)(=O)Nc1cc(C(O)CNCCOc2ccc3c(c2)sc2ccccc23)ccc1O (racemic) [Example 40, Hydrochloride]
Solution: 97

* * *

Each entry below lists one item and its recorded pEC50 value.
Molecular target: human β3 (Homo sapiens, UniProt P13945)
Construct: And then full length of human β3 gene was cloned using this fragment as a probe; expressed in transfected cells; host or cells: CHO cells (Chinese hamster ovary), pcDNA3 vector
Sequence (P13945 whole entry, the tested form may be a part): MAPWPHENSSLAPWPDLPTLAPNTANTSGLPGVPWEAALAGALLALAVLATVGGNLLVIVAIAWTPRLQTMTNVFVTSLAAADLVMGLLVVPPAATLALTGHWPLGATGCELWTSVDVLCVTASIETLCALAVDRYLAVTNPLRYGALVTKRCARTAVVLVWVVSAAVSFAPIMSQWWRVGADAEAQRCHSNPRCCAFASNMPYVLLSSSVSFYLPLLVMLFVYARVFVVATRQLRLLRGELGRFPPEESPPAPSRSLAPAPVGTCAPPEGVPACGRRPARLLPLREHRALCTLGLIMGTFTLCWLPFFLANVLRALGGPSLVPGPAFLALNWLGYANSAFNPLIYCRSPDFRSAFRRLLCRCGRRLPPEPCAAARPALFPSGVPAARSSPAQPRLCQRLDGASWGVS
Assay: Human β3-agonist activity (cAMP in CHO cells transfected with human β3 gene)
Format: cell-based
Structures can show the parent of a compound that is named as a salt.
Formally, pEC50 is defined as -log10 of the concentration c, with c in mol/L.

Solved entries:
compound: CNS(=O)(=O)c1cccc(C(O)CNCCOc2ccc3c(c2)[nH]c2ccccc23)c1 (racemic) [Example 16, Hydrochloride]
pEC50: 7.52

compound: CN(C)S(=O)(=O)Nc1cc(C(O)CNCCOc2ccc3c(c2)[nH]c2ccccc23)ccc1O (racemic) [Example 25, Hydrochloride]
pEC50: 8.68

Exercise: Any idea what its pEC50 is? The compound is CN(C)S(=O)(=O)Nc1cc([C@H](O)CNCCOc2ccc3c(c2)[nH]c2ccccc23)ccc1O [Example 74, Hydrochloride]
Solution: 9.13

* * *

System: canine adipocytes
Experiment: Lipolytic activity in canine fatty cell (glycerol release)
Format: cell-based, dogs
Details: Canis lupus familiaris, Adipocyte, 1 h; glycerol release, canine adipocytes; read-out: ED50 (the source's name)
Where a name gives a salt, the structure may show the parent alone.
Each entry below lists one item and its recorded log10 EC50 value.
Scale type: logarithmic (base 10). Underlying EC50 unit: nM.

Solved entries:
compound: CC(=O)Nc1ccc2c(c1)Cc1cc(OCCNCC(O)c3ccc(O)c(NS(C)(=O)=O)c3)ccc1-2 (racemic) [Example 50, Hydrochloride]
log10 EC50: -0.72
//
compound: CS(=O)(=O)Nc1cccc(C(O)CNCCOc2ccc3c(c2)[nH]c2ccccc23)c1.Cl (racemic) [Example 7, Hydrochloride]
log10 EC50: 3.08
//
compound: CS(=O)(=O)Nc1cc(C(O)CNCCOc2ccc3c(c2)oc2ccccc23)ccc1O (racemic) [Example 4, Hydrochloride]
log10 EC50: -0.15

Exercise: Any idea what its log10 EC50 is? The compound is CS(=O)(=O)Nc1cc(C(O)CNCCOc2ccc3c(c2)sc2ccccc23)ccc1O (racemic) [Example 38, Hydrochloride]
Solution: 0.41

Exercise: Would you kindly repeat that for CS(=O)(=O)Nc1cccc(C(O)CNCCOc2ccc3c(c2)sc2ccccc23)c1 (racemic) [Example 41, Hydrochloride] ?
Solution: 2.38

Exercise: Would you kindly repeat that for CC(=O)Nc1ccc2c(c1)Cc1cc(OCCNC[C@H](O)c3cccc(NS(C)(=O)=O)c3)ccc1-2 [Example 71, Hydrochloride] ?
Solution: 2.04

Exercise: Would you kindly repeat that for OCc1cc(C(O)CNCCOc2ccc3c(c2)[nH]c2ccccc23)ccc1O (racemic) [Example 67, Hydrochloride] ?
Solution: 1.73
